Data provenance: paper PMC6566410

target: UniProt P00918

[
  {
    "structure_smiles": "COc1ccc(C=C(NC(=O)c2ccccc2)C(=O)Nc2ccc(S(N)(=O)=O)cc2)cc1",
    "assayed_target": "UniProt P00918",
    "Ki (nM)": 128
  },
  {
    "structure_smiles": "COc1ccc(C=C(NC(=O)c2ccccc2)C(=O)Nc2ccc(S(N)(=O)=O)cc2)cc1OC",
    "assayed_target": "UniProt P00918",
    "Ki (nM)": 448
  },
  {
    "structure_smiles": "Cc1ccc(C=C(NC(=O)c2ccccc2)C(=O)Nc2ccc(S(N)(=O)=O)cc2)cc1",
    "assayed_target": "UniProt P00918",
    "Ki (nM)": 94.4
  },
  {
    "structure_smiles": "COc1ccc(C=C(NC(=O)c2ccccc2)C(=O)Nc2ccc(S(N)(=O)=O)cc2)c(OC)c1",
    "assayed_target": "UniProt P00918",
    "Ki (nM)": 294
  },
  {
    "structure_smiles": "NS(=O)(=O)c1ccc(NC(=O)C(=Cc2ccc(Cl)cc2)NC(=O)c2ccccc2)cc1",
    "assayed_target": "UniProt P00918",
    "Ki (nM)": 68.3
  },
  {
    "structure_smiles": "NS(=O)(=O)c1ccc(NC(=O)C(=Cc2ccc(Br)cc2)NC(=O)c2ccccc2)cc1",
    "assayed_target": "UniProt P00918",
    "Ki (nM)": 252
  },
  {
    "structure_smiles": "Cc1ccc(C=C(NC(=O)c2ccccc2)C(=O)Nc2ccc(S(N)(=O)=O)cc2)o1",
    "assayed_target": "UniProt P00918",
    "Ki (nM)": 115
  },
  {
    "structure_smiles": "NS(=O)(=O)c1ccc(NC(=O)C(=Cc2ccc(Cl)cc2Cl)NC(=O)c2ccccc2)cc1",
    "assayed_target": "UniProt P00918",
    "Ki (nM)": 224
  }
]
